Sourced from ChEMBL document CHEMBL1156882

target: P2Y purinoceptor 2 (Homo sapiens); test: Agonist activity at human P2Y2 receptor expressed in human 1321N1 cells assessed as concentration required to 50% maximal response of compound 3 at 10 uM by fura2/AM assay; type: functional, cell-based
Sequence (P41231 whole entry): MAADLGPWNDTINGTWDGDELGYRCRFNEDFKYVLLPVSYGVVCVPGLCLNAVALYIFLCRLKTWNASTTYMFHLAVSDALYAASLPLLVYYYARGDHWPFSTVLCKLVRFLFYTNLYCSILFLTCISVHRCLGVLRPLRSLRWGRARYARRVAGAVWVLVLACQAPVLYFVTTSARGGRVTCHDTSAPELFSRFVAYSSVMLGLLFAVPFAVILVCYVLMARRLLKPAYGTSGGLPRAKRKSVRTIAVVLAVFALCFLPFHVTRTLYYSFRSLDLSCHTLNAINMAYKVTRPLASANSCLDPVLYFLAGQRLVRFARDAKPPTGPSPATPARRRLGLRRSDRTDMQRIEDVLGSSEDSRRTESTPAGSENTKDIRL
Reported Metric: EC50 (nM)

>  <Smiles>
O=c1[nH]c(=O)n([C@@H]2O[C@H](COP(=O)(O)OP(=O)(O)O)[C@@H](O)[C@H]2O)cc1F

>  <Output Unit>
nM

>  <Quantitative Readout>
2000

$$$$

---

biological target: P2Y purinoceptor 6 (Homo sapiens, UniProt Q15077); assay: Agonist activity at human P2Y6 receptor expressed in human 1321N1 cells assessed as calcium elevation by fura2/AM assay; assay type: functional, cell-based; details: read-out: EC50
Sequence (Q15077 whole entry): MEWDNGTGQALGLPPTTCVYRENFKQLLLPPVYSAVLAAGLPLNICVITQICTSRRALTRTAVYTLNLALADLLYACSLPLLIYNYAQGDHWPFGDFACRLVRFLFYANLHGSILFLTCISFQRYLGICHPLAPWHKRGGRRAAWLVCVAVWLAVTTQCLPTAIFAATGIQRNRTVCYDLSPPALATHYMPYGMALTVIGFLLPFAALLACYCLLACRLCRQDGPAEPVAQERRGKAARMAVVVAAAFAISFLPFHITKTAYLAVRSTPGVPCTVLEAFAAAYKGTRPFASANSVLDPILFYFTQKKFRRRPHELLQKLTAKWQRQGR
pEC50: −log10 of the molar value.

>  <Compound>
O=c1ccn([C@@H]2O[C@H](COP(=O)(O)OP(=O)(O)O)[C@@H](O)[C@H]2O)c(=O)[nH]1 [URIDINE_DIPHOSPHATE]

>  <pEC50>
6.85

$$$$
>  <Compound>
O=c1ccn([C@]23C[C@H]2[C@H](COP(=O)(O)OP(=O)(O)O)[C@@H](O)[C@H]3O)c(=O)[nH]1

>  <pEC50>
6.64

$$$$
>  <Compound>
O=c1[nH]c(=O)n([C@@H]2O[C@H](COP(=O)(O)OP(=O)(O)OP(=O)(O)O)[C@@H](O)[C@H]2O)cc1Br

>  <pEC50>
6.10

$$$$
>  <Compound>
COc1cn([C@@H]2O[C@H](COP(=O)(O)OP(=O)(O)OP(=O)(O)O)[C@@H](O)[C@H]2O)c(=O)[nH]c1=O

>  <pEC50>
6.05

$$$$
>  <Compound>
COc1cn([C@@H]2O[C@H](COP(=O)(O)OP(=O)(O)O)[C@@H](O)[C@H]2O)c(=O)[nH]c1=O

>  <pEC50>
7.10

$$$$
>  <Compound>
O=c1[nH]c(=O)n([C@@H]2O[C@H](COP(=O)(O)OP(=O)(O)O)[C@@H](O)[C@H]2O)cc1I

>  <pEC50>
7.89

$$$$
>  <Compound>
O=c1[nH]c(=O)n([C@@H]2O[C@H](COP(=O)(O)OP(=O)(O)S)[C@@H](O)[C@H]2O)cc1Br (stereo partly drawn)

>  <pEC50>
7.33

$$$$
>  <Compound>
O=c1ccn([C@@H]2O[C@H](COP(=O)(O)OP(=O)(O)OP(=O)(O)OP(=O)(O)OC[C@H]3O[C@@H](n4ccc(=O)[nH]c4=O)[C@H](O)[C@@H]3O)C3OC(Cc4ccccc4)OC32)c(=O)[nH]1 (stereo partly drawn)

>  <pEC50>
6.85

$$$$

---

biological target: P2Y purinoceptor 2 (Mus musculus, UniProt P35383); test: Agonist activity at mouse P2Y2 receptor expressed in human 1321N1 cells assessed as calcium elevation by fura2/AM assay; type: functional, cell-based
Sequence (P35383 whole entry): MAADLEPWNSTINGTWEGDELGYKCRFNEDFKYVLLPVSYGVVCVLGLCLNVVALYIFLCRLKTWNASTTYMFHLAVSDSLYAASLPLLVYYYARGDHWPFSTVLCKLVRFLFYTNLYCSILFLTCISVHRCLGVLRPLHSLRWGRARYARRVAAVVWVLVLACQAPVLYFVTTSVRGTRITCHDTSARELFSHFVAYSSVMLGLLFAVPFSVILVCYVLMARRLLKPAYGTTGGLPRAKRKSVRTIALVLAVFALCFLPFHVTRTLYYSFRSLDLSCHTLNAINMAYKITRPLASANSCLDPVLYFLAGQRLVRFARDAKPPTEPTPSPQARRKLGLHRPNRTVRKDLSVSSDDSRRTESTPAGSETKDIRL
Reported Metric: EC50 (µM)

>  <Smiles>
CCc1cn([C@@H]2O[C@H](COP(=O)(O)OP(=O)(O)OP(=O)(O)O)[C@@H](O)[C@H]2O)c(=O)[nH]c1=O

>  <Reported Metric>
EC50

>  <Output Unit>
µM

>  <Quantitative Readout>
99

$$$$

---

target: P2Y purinoceptor 6 (Homo sapiens, UniProt Q15077); test: Agonist activity at human P2Y6 receptor expressed in human 1321N1 cells assessed as concentration required to 50% maximal response of compound 3 at 10 uM by fura2/AM assay; format: functional, cell-based

>  <Smiles>
O=c1[nH]c(=O)n([C@@H]2O[C@H](COP(=O)(O)OP(=O)(O)O)[C@@H](O)[C@H]2O)cc1F

>  <Output Unit>
µM

>  <EC50>
10

$$$$
